test system: Protocadherin-15 (Homo sapiens), Q96QU1 [R3X]; assay: Suppression of human PCDH15 R3X mutation at 80 ug/ml
parameter: Activity (%)
Numeric answer only, unit % assumed.

Lookup: Look up Activity: NC[C@@H]1O[C@H](O[C@@H]2[C@@H](O)[C@H](O[C@H]3O[C@H](CO)[C@@H](O)[C@H](O)[C@H]3N)[C@@H](N)C[C@H]2N)[C@@H](O)[C@H]1O.O=S(=O)(O)O
Found: 4.4

---

Parameter: Activity. Scope: all listed entries.
test system: Protocadherin-15 (Homo sapiens), Q96QU1 [R3X]; assay: Suppression of human PCDH15 R3X mutation at 80 ug/ml

{"molecule": "N[C@H]1[C@@H](O[C@H]2[C@H](O)[C@@H](O)[C@H](N)C[C@@H]2N)O[C@H](CO)[C@@H](O)[C@@H]1O.O=S(=O)(O)O [PAROMAMINE SULFATE]", "testValue": "6.2%"}
{"molecule": "N[C@H]1[C@@H](O[C@H]2[C@H](O)[C@@H](O[C@H]3O[C@@H](CO)[C@H](O)[C@@H]3O)[C@H](N)C[C@@H]2N)O[C@H](CO)[C@@H](O)[C@@H]1O.O=S(=O)(O)O", "testValue": "1.5%"}

Lookup: Look up Activity: N[C@H]1[C@@H](O[C@H]2[C@H](O[C@@H]3O[C@H](CO)[C@@H](O)[C@H]3O)[C@@H](O)[C@H](N)C[C@@H]2N)O[C@H](CO)[C@@H](O)[C@@H]1O.O=S(=O)(O)O
Found: 1.3%

Lookup: Try this molecule next: NC[C@@H]1O[C@H](O[C@H]2[C@@H](O)[C@H](O[C@@H]3[C@@H](O)[C@H](N)C[C@H](N)[C@H]3O[C@H]3O[C@H](CO)[C@@H](O)[C@H](O)[C@H]3N)O[C@@H]2CO)[C@H](N)[C@@H](O)[C@@H]1O.O=S(=O)(O)O [PAROMOMYCIN SULFATE]
Found: 6.2%

Lookup: Try this molecule next: NC[C@H]1O[C@@H](O[C@@H]2[C@@H](N)[C@@H](O[C@H]3[C@H](O)[C@@H](O)[C@H](N)C[C@@H]3N)O[C@H](CO)[C@H]2O)[C@H](O)[C@@H]1O.O=S(=O)(O)O
Found: 2.9%

Lookup: Try this molecule next: N[C@H]1[C@@H](O[C@H]2[C@H](O)[C@@H](O)[C@H](N)C[C@@H]2N)O[C@H](CO)[C@@H](O)[C@H]1N.O=S(=O)(O)O
Found: 2%

Lookup: Try this molecule next: NC[C@H]1O[C@@H](O[C@@H]2[C@@H](O)[C@H](N)C[C@H](N)[C@H]2O[C@H]2O[C@H](CO)[C@@H](O)[C@H](O)[C@H]2N)[C@H](O)[C@@H]1O.O=S(=O)(O)O
Found: 21%
